# cytotoxicity at 10 µM annotations
test: Toxicity liver stage against HepG2, at 10uM; format: cell-based; set-up: test concentration 10 uM, cell line HepG2-A16-CD81EGFP; settings: human, HepG2-A16-CD81EGFP cells; read-out: INHIBITION

[
  {
    "molecule": "COc1cccc(CNc2c(O)c(=O)c2=O)c1",
    "cytotoxicity at 10 µM [%]": 5.78
  },
  {
    "molecule": "CC(=O)N1CCC(NS(=O)(=O)c2cccnc2)CC1",
    "cytotoxicity at 10 µM [%]": -2.73
  },
  {
    "molecule": "CN(Cc1ccncc1)C(=O)NC1CCCN(c2ncccn2)C1 (centres undefined)",
    "cytotoxicity at 10 µM [%]": -14
  },
  {
    "molecule": "Cc1cc(CN2CCc3c(CNc4ncccn4)cncc3C2)oc1C",
    "cytotoxicity at 10 µM [%]": -82.6
  },
  {
    "molecule": "Cc1noc(C2CCN(C(=O)c3ccc(C(F)(F)F)nc3)CC2)n1",
    "cytotoxicity at 10 µM [%]": -6.16
  },
  {
    "molecule": "CCCC(=O)N1CCCCC1C(=O)Nc1ccc(-c2nnc[nH]2)cc1 (centres undefined)",
    "cytotoxicity at 10 µM [%]": 7.65
  },
  {
    "molecule": "CCCOc1ccc(CN)c(OC(F)F)c1",
    "cytotoxicity at 10 µM [%]": -41.7
  },
  {
    "molecule": "O=S(=O)(C1CC1)N1CCC2(CC1)CN(Cc1nccs1)CCO2",
    "cytotoxicity at 10 µM [%]": 8.1
  },
  {
    "molecule": "Cc1ccc(N2CCO[C@H]3[C@H](OCC(=O)N4CCCC4)CC[C@@H]32)cc1",
    "cytotoxicity at 10 µM [%]": -1.03
  },
  {
    "molecule": "COCCN1CCN(c2cc(OC)ncn2)Cc2ccc(C)nc21",
    "cytotoxicity at 10 µM [%]": -99.2
  },
  {
    "molecule": "Cc1nc(CN2CCN(Cc3ccoc3)Cc3cccnc32)cs1",
    "cytotoxicity at 10 µM [%]": -5.25
  },
  {
    "molecule": "CNC(=O)CN1CCOCC2(C1)CN(C(=O)CC(C)C)CCO2 (centres undefined)",
    "cytotoxicity at 10 µM [%]": 3.94
  },
  {
    "molecule": "Cc1cc(C)n(-c2ccc(CNCc3ccc(OC(C)C)cc3)cn2)n1",
    "cytotoxicity at 10 µM [%]": -6.95
  },
  {
    "molecule": "Cc1nc(CO[C@@H]2CN(Cc3cccs3)[C@@H]3COC[C@@H]32)cs1",
    "cytotoxicity at 10 µM [%]": -0.646
  },
  {
    "molecule": "CC(=O)c1cccc(NC(=O)c2cnc(N3CCN(C)CC3)nc2C)c1",
    "cytotoxicity at 10 µM [%]": 4.28
  },
  {
    "molecule": "CCOC[C@H]1CC[C@H]2[C@H](CCN2C(=O)c2cnccn2)O1",
    "cytotoxicity at 10 µM [%]": 2.22
  },
  {
    "molecule": "Cc1cccc(CN2CC3(CCN(C(=O)C4CC4)CC3)OCC2=O)n1",
    "cytotoxicity at 10 µM [%]": -4.67
  },
  {
    "molecule": "CSc1[nH]nc(NC(=O)c2ccccc2)c1C#N",
    "cytotoxicity at 10 µM [%]": -9.59
  },
  {
    "molecule": "CC(C)c1nc2n(n1)CC(NCc1nc(C3CC3)no1)CC2 (centres undefined)",
    "cytotoxicity at 10 µM [%]": -7.59
  },
  {
    "molecule": "CSCCC(=O)N[C@H]1CC[C@H](Nc2nccc(-c3ccncc3)n2)C1",
    "cytotoxicity at 10 µM [%]": -0.664
  },
  {
    "molecule": "CCn1nnc2c1CCN(S(C)(=O)=O)C2COCc1ccccc1 (centres undefined)",
    "cytotoxicity at 10 µM [%]": 0.196
  },
  {
    "molecule": "Cc1cn2c(n1)CCC(NC(=O)Cn1cncn1)C2 (centres undefined)",
    "cytotoxicity at 10 µM [%]": -3.86
  },
  {
    "molecule": "CC(C(=O)N(C)Cc1ccc(Br)o1)n1cccn1 (centres undefined)",
    "cytotoxicity at 10 µM [%]": 4.9
  },
  {
    "molecule": "COc1ccc(NC2CCc3c2[nH]c(=O)n(C2CCCCC2)c3=O)cc1 (centres undefined)",
    "cytotoxicity at 10 µM [%]": 2
  }
]

From: ChEMBL document CHEMBL4513216
